Target: IRF5
Conditions: ASO, A-431, 0.03704 µM
After the bases stand the sugars from the 5' end (letter, count) and the backbone: PS all phosphorothioate, else s phosphorothioate and o phosphodiester by linkage. Methylation of C is not given here. [mop] = methoxypropylphosphonate linkage; k = constrained ethyl (cEt); d = 2'-deoxy (DNA)
Recorded measurements of target mRNA inhibition, one per entry

// below: answered sequences
>>> value_measured("CTGATATGATACCTAA (sugars k3 d2 k1 d7 k3, PS)")
"41%"
>>> value_measured("CTGATATGATACCTAA (sugars k3 d10 k3, PS)")
"54%"
>>> value_measured("CTGATATGATACCTAA (sugars k3 d10 k3, linkages s5 [mop]1 s9)")
"25%"

Turning to the following sequence.
-- ask Form field: reported target mRNA inhibition of TCTGATATGATACCTA (sugars k3 d2 k1 d7 k3, PS)
-- reply 36%

###

Measured target mRNA inhibition of individual entries
Biological target: APOL1
Details: ASO, A431, 1 µM
After the bases stand the sugars from the 5' end (letter, count) and the backbone: PS all phosphorothioate, else s phosphorothioate and o phosphodiester by linkage. Methylation of C is not given here. e = 2'-O-(2-methoxyethyl) (MOE); k = constrained ethyl (cEt); d = 2'-deoxy (DNA)
# output: bare number, implied unit %

Example cases with answers are listed next.
>>> value_measured("GGAATTATGGAATTGC (sugars kkddddekekeddddd, PS)")
97
>>> value_measured("ATTTCTTGATGTGGTG (sugars k4 d9 k3, PS)")
99
>>> value_measured("GAATGAGCAGGTCAGA (sugars k4 d9 k3, PS)")
91
>>> value_measured("CATTTGGAGATCTGGC (sugars k4 d9 k3, PS)")
92
>>> value_measured("ACAGCATTGAGTACAA (sugars k4 d9 k3, PS)")
90

Please look at the following sequence next.
-- ask Please report the recorded target mRNA inhibition for CAGCATTGAGTACAAC (sugars k3 d10 k3, PS) .
-- reply 84

###

Target: IRF5
Conditions: ASO, KARPAS-229, 12 µM
After the bases stand the sugars from the 5' end (letter, count) and the backbone: PS all phosphorothioate, else s phosphorothioate and o phosphodiester by linkage. Methylation of C is not given here. e = 2'-O-(2-methoxyethyl) (MOE); k = constrained ethyl (cEt); d = 2'-deoxy (DNA)
target mRNA inhibition values by entry
Field format: number, assumed %, no unit text.

-- ask So what's the measured target mRNA inhibition for this one? ACGAGTTATGGGAAGG (sugars k3 d10 k3, PS)
-- reply 81

-- ask # iterate: CTGATATGATACCTAA (sugars k3 d10 k3, PS)
-- reply 77

-- ask Further, for ACCACTGTGTACCCCA (sugars k3 d10 k3, PS) ?
-- reply 65

-- ask Ok, now CCATTCTATGCCTTTT (sugars kkdddddddddkekek, PS)
-- reply 81

-- ask Subsequent entry: ACCACTGTGTACCCCA (sugars kekdddddddddeekk, PS)
-- reply 77

###

Target: ANGPTL2
Details: ASO, 5 µM
After the bases stand the sugars from the 5' end (letter, count) and the backbone: PS all phosphorothioate, else s phosphorothioate and o phosphodiester by linkage. Methylation of C is not given here. l = locked nucleic acid (LNA); d = 2'-deoxy (DNA)
Label yes for high-side target mRNA inhibition (at or above 30%) and no for low-side target mRNA inhibition (below it).

>>> classification("AGCTCAGTGGTGAGATGG (sugars l1 d15 l2, PS)")
"yes"
>>> classification("GACTAACTGTTGAAATTG (sugars l3 d11 l4, PS)")
"no"

-- ask Answer whether target mRNA inhibition of CTCCGGTAATGGCCCC (sugars l1 d12 l3, PS) is greater than or equal to 30%.
-- reply no

-- ask Can you handle TCCAAGGCACTCTATGAT (sugars l2 d14 l2, PS) next?
-- reply no

-- ask Entry ACTGGTGAGGAGTTGTT (sugars l2 d13 l2, PS) please
-- reply no

-- ask Another sequence to check: ATCTTATTTTGTTTAACA (sugars l4 d10 l4, PS)
-- reply yes

###

Molecular target: KRAS
Settings: ASO, A431, 5 µM
After the bases stand the sugars from the 5' end (letter, count) and the backbone: PS all phosphorothioate, else s phosphorothioate and o phosphodiester by linkage. Methylation of C is not given here. e = 2'-O-(2-methoxyethyl) (MOE); k = constrained ethyl (cEt); d = 2'-deoxy (DNA)
If the reported target mRNA inhibition equals or exceeds 80%, assign 1 (yes). If not, assign 0 (no).

Examples from the recorded data:
>>> classification("TTTCTGATGTGACTCA (sugars k3 d10 k3, PS)")
"0 (no)"
>>> classification("TGGTGTAACATAGGTT (sugars kkddddddddkekekk, PS)")
"0 (no)"
>>> classification("CCATTCAAAGTTCACA (sugars kkddddddddkekekk, PS)")
"0 (no)"
>>> classification("CATTCAAAGTTCACAT (sugars kkddddddddkekekk, PS)")
"0 (no)"

-- ask API: above_or_equal(metric=target mRNA inhibition, cutoff=80%) for item GTGTTTATGCAATGTT (sugars kkddddddddddkeke, PS)
-- reply 1 (yes)

-- ask Again, but for GCTATAATAATCCCCA (sugars k3 d10 k3, PS)
-- reply 0 (no)

-- ask Item: TTGATTTGTCAGCAGG (sugars k3 d10 k3, PS)
-- reply 1 (yes)

-- ask Same for CCATTTATGTGACTAG (sugars k3 d9 k3 e1, PS)
-- reply 0 (no)

-- ask Then this sequence: GTGTTTATGCAATGTT (sugars k3 d10 k3, PS)
-- reply 1 (yes)

###

Biological target: MALAT1
Settings: ASO, A431, 0.005 µM
After the bases stand the sugars from the 5' end (letter, count) and the backbone: PS all phosphorothioate, else s phosphorothioate and o phosphodiester by linkage. Methylation of C is not given here. k = constrained ethyl (cEt); d = 2'-deoxy (DNA)
Reported target mRNA inhibition values are given for each entry in this list.
# output: number + unit

Examples from the recorded data:
>>> value_measured("GACACTTTCCTTGCCC (sugars k3 d10 k3, PS)")
"48%"
>>> value_measured("CTTCTGCACCACCAGA (sugars k3 d10 k3, PS)")
"13%"
>>> value_measured("CTTATCTGTTAACAGC (sugars k3 d10 k3, PS)")
"43%"

Now for another entry.
-- ask Name the reported target mRNA inhibition value associated with the sequence AGTTACTCCAGCATAA (sugars k3 d10 k3, PS)
-- reply 31%

###

Target: DGAT2
Conditions: ASO, HepG2, 10 µM
After the bases stand the sugars from the 5' end (letter, count) and the backbone: PS all phosphorothioate, else s phosphorothioate and o phosphodiester by linkage. Methylation of C is not given here. e = 2'-O-(2-methoxyethyl) (MOE); d = 2'-deoxy (DNA)
# key: entry, value: target mRNA inhibition
Provide the reading as a plain figure in %.

Example cases with answers are listed next.
>>> value_measured("TGGTCAGCAGGTTGTGTGTC (sugars e5 d10 e5, PS)")
72
>>> value_measured("CAGGGTCTGCCACTCTCTAC (sugars e5 d10 e5, PS)")
85
>>> value_measured("GTTGCCATCATACTAGACTA (sugars e5 d10 e5, PS)")
85
>>> value_measured("GTTCTTCCAACCAGTGTTTG (sugars e5 d10 e5, PS)")
81
>>> value_measured("GGATAGTCGATTTACCAGAA (sugars e5 d10 e5, PS)")
85
>>> value_measured("ATCAGCTATAGAATCAGACA (sugars e5 d10 e5, PS)")
75
>>> value_measured("ATCCAATGCACCTTGTATTA (sugars e5 d10 e5, PS)")
93
>>> value_measured("GGCATGCTTCCTCCCAC (sugars e3 d10 e4, PS)")
56

-- ask Which measured target mRNA inhibition value corresponds to CCCGGAGTAGGCGGCTATGA (sugars e5 d10 e5, PS) ?
-- reply 89

-- ask Consider next the sequence TACCTGCTATGCTGAGAGCA (sugars e5 d10 e5, PS) in the same way.
-- reply 80

-- ask How about this sequence: GCGATTCACTGAGGACCTCA (sugars e5 d10 e5, PS)
-- reply 86

-- ask Field entry: GTAAGCCTCGGTGTCCT (sugars e3 d10 e4, PS)
-- reply 79

-- ask TAACCACAGCGATAATCACA (sugars e5 d10 e5, PS) , same question.
-- reply 93

-- ask Now consider CTCAGTCACTGACTCACAAC (sugars e5 d10 e5, PS) and answer again.
-- reply 88

-- ask Ok, now TAAGGAAAACTTAGGCATGC (sugars e5 d10 e5, PS)
-- reply 69

-- ask Same thing, different sequence: CAGAAGAGCAAAGGCTTGCT (sugars e5 d10 e5, PS)
-- reply 94

-- ask Param item: CTCACCCCTGTACTCAGCCC (sugars e5 d10 e5, PS)
-- reply 88
